The reported measurements were obtained from PubChem BioAssay.

Would you kindly list slope for each of these compounds?
# tgt: Alpha-2C adrenergic receptor (Homo sapiens) (UniProt P18825)
# Sequence (P18825 whole entry, looked up): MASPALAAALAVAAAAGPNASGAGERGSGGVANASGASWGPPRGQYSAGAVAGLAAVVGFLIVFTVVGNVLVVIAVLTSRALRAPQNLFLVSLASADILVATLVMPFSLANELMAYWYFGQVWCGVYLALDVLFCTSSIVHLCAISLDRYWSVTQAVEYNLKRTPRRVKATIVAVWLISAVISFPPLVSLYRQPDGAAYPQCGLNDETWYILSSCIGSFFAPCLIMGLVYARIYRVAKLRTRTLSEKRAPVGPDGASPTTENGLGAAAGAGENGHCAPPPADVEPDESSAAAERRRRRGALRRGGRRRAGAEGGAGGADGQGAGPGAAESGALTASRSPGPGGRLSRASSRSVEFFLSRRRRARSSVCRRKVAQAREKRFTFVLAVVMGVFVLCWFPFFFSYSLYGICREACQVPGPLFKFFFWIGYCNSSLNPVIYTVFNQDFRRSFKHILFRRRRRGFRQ
# assay-notes: modulators of alpha2C/GIRK thallium flux, primary screen, cell-based, HEK293 alpha2C/GIRK1/2 (AID 624);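 note: slope of fluorescence ratio to pre-addition baseline per second over 15 to 24 s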
# applied-conditions: thallium flux BTC fluorescence, at 10 µM, actives lie on both sides
# respond with the number and nothing more

Exam item: Request the reported slope associated with O=C(c1ccco1)N1CCN(CCOCCOc2cccc3ccccc23)CC1
Marked response: 0.00477

Exam item: Next compound: CCCSc1nc(C)c(CC(=O)O)c(=O)[nH]1
Marked response: 0.00515

Exam item: Next compound: CC(=O)N=C(N)Sc1nc2ccccc2[nH]1
Marked response: 0.00501

Exam item: Next compound: CC1(C)Cc2c(sc3c2C(=O)N(c2ccccc2)C2=NCCCN23)CO1
Marked response: 0.00454

Exam item: Next compound: COC(=O)c1ccc(=O)n(Cc2ccc3c(c2)OCO3)c1
Marked response: 0.00627

Exam item: Next compound: Cc1cc(=O)[nH]c(SCC(=O)c2ccccc2)c1C#N
Marked response: 0.00479

Exam item: Next compound: CC1(C)Cc2nc(N)c(C(=O)NCCO)cc2CO1
Marked response: 0.00417

====

Would you kindly list inhibition for each of these compounds?
# assay-notes: inhibitors of Sendai virus-induced IRF3 signaling, primary screen, TLR/RLR signaling modifier project, cell-based, Sendai virus stimulus, luciferase, 10K MLSCN set (AID 602276);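 note: firefly luciferase from ISG56 promoter only with Renilla not read in this screen; 0% = Sendai virus plus DMSO and 100% = medium plus DMSO without virus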
# applied-conditions: HEK293 RL24 IRF3 luciferase reporter, at 10 µM, stronger effect = higher value
Lab book: enter the figure in %, no units written.

Exam item: Request the reported inhibition associated with C[C@@H]1C[C@H]2[C@@H]3CCC4=CC(=O)C=C[C@]4(C)[C@@]3(F)[C@@H](O)C[C@]2(C)[C@H]1C(=O)CO
Marked response: -17.5

Exam item: Next compound: CCOC(=O)c1c(-c2cccs2)csc1NC(=O)CCCC(=O)O
Marked response: 15.6

Exam item: Next compound: CC(C)COc1nc2ccccc2nc1C(C#N)C(=O)NC1CCCCC1 (centres undefined)
Marked response: 13.4

Exam item: Next compound: CC(=O)OCC(=O)[C@@]1(O)CC[C@H]2[C@@H]3CCC4=CC(=O)C=C[C@]4(C)[C@@]3(Cl)[C@@H](Cl)C[C@@]21C
Marked response: 5.49

Exam item: Next compound: CCN(CC)CCN1C(=O)C(O)=C(C(=O)c2ccco2)C1c1ccccn1 (centres undefined)
Marked response: 15.6

Exam item: Next compound: CCc1cc2c(=O)c(-c3nc4ccccc4[nH]3)coc2cc1OC(=O)N1CCOCC1
Marked response: -4.36

Exam item: Next compound: COc1ccc2c(c1)[nH]c1c(=O)n(CCN(C)C)cnc12
Marked response: 17

Exam item: Next compound: CCOC(=O)C1=C(CSc2nc(C)cc(C)c2C#N)OC(N)=C(C#N)C1c1cccs1 (centres undefined)
Marked response: 13.2

Exam item: Next compound: CCN(CC)CCNC(=O)c1cc(Cl)c(N)cc1OC
Marked response: -8.87

Exam item: Next compound: Cc1csc(NC(=O)CSc2nsc(SCC(=O)Nc3nc(C)cs3)c2C#N)n1
Marked response: -8.75

Exam item: Next compound: CN1CCN(c2nc3c(c(=O)n(C)c(=O)n3C)n2Cc2cccc3ccccc23)CC1
Marked response: 9.16

Exam item: Next compound: CN(C)CCOC(=O)C(c1ccccc1)C1(O)CCCC1 (centres undefined)
Marked response: 15.3

Exam item: Next compound: C=C1[C@@H](C)C2[C@H](Cc3ccccc3)NC(=O)[C@]23OC(=O)CC[C@H](O)CCC[C@H](C)C/C=C/[C@H]3[C@@H]1O (some centres undefined)
Marked response: 7.56

Exam item: Next compound: COc1ccc(C2CNC(=O)C2)cc1OC1CCCC1 (centres undefined)
Marked response: 15.5

====

# assay-notes: inhibitors of E-selectin induction by TNFa, primary screen, imaging, HUVEC, immunofluorescence, MLSMR starter and 10KST1 sets (AID 487);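 note: 100% = median nuclei count of all wells on the same plate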
# applied-conditions: HUVEC TNFalpha-induced E-selectin immunofluorescence imaging, at 2 µM; measured here: cell number, toxicity
Would you kindly list nuclei count for each of these molecules?
Lab book: enter the figure in %, no units written.

Exam item: Request the reported nuclei count associated with CCOc1cc2nc(-c3ccc(OC)c(OC)c3)nc(N3CCOCC3)c2cc1OC
Marked response: 151

Exam item: Next molecule: Cc1ccc(C)c(OCCCC(C)(C)C(=O)O)c1
Marked response: 122

Exam item: Next molecule: COc1ccc(-c2oc3ncn4nc(Cc5ccccc5)nc4c3c2-c2ccc(OC)cc2)cc1
Marked response: 175

Exam item: Next molecule: CNc1oc(-c2ccc(Cl)cc2)nc1C#N
Marked response: 169

Exam item: Next molecule: CCOC(=O)c1[nH]c2ccc(OC)cc2c1NC(=O)CN1CCN(c2ccccn2)CC1
Marked response: 157

Exam item: Next molecule: OCCN(CCO)c1nc(N2CCCCC2)c2nc(N(CCO)CCO)nc(N3CCCCC3)c2n1
Marked response: 134

Exam item: Next molecule: COc1ccc(Nc2oc(-c3cccs3)nc2C#N)cc1
Marked response: 142

Exam item: Next molecule: Nc1nonc1C(=O)NCCN=Cc1cc(Cc2ccccc2)cc(Br)c1O
Marked response: 156

Exam item: Next molecule: O=c1c2c3c(sc2n2cnnc2n1Cc1ccccc1)CN(Cc1ccccc1)CC3
Marked response: 104

Exam item: Next molecule: CNC[C@H](O)c1cccc(O)c1
Marked response: 117

Exam item: Next molecule: N#C/C(C(=O)NCc1ccccc1)=C1\SC(CCO)C(=O)N1c1ccccc1 (configuration not stated)
Marked response: 120

Exam item: Next molecule: COc1cccc(/C(O)=C2\C(=O)C(=O)N(c3ccccn3)C2c2ccccc2OC)c1 (configuration not stated)
Marked response: 126

====

# assay-notes: inhibitors of Chlamydomonas gravitaxis, primary screen, whole organism, Chlamydomonas reinhardtii, WT vs cilia-less mutant, absorbance, 96-well (AID 463189);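 note: 0% = wild type cc124 cells in DMSO and 100% = ciliumless bld1 mutant cells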
# applied-conditions: OD600 absorbance, 2 days, at 10 µM, stronger effect = higher value
measured-metric: inhibition (%)
Lab book: enter the figure in %, no units written.

Exam item: Request the reported inhibition associated with Cn1c(NCCN2CCCCC2)cc(=O)n(C)c1=O
Marked response: 9.26

Exam item: Next compound: COc1ccc(/C(O)=C2/C(=O)C(=O)N(CCCN(C)C)C2c2ccco2)cc1Cl (centres undefined)
Marked response: 14.2

Exam item: Next compound: CCOc1ccc2c(C)nc(NC3=NC(C)(C)C=C(C)N3)nc2c1
Marked response: 19.3

Exam item: Next compound: COc1ccc(OC)c(NC(=O)CSC2=C(C#N)C(c3ccco3)C3=C(CCCC3=O)N2)c1 (centres undefined)
Marked response: 20.2

====

Would you kindly list nuclei count for each of these compounds?
# assay-notes: inhibitors of E-selectin induction by TNFa, primary screen, imaging, HUVEC, immunofluorescence, MLSMR starter and 10KST1 sets (AID 487);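 note: 100% = median nuclei count of all wells on the same plate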
# applied-conditions: HUVEC TNFalpha-induced E-selectin immunofluorescence imaging, at 2 µM; measured here: cell number, toxicity
Lab book: enter the figure in %, no units written.

Exam item: Request the reported nuclei count associated with Cc1cccc(N)c1SC1CCCCC1O (stereo not given)
Marked response: 131

Exam item: Next compound: CCCC(=O)O[C@]1(C(=O)CCl)[C@@H](C)C[C@H]2[C@@H]3CCC4=CC(=O)C=C[C@]4(C)[C@@]3(F)C(=O)C[C@@]21C
Marked response: 120

Exam item: Next compound: COC(=O)c1ccc(OC(=O)c2ccc(OC)c(OC)c2)c(OC)c1
Marked response: 142

Exam item: Next compound: O=C1CC(c2ccccc2)NC(=O)N1 (stereo not given)
Marked response: 127

Exam item: Next compound: CCOC(=O)CC(=O)CSc1nc2c(cc1C#N)CCCCC2
Marked response: 114

Exam item: Next compound: COc1ccc2[nH]c3c(N4CCN(Cc5ccc6c(c5)OCO6)CC4)ncnc3c2c1
Marked response: 137

Exam item: Next compound: CCOC(=O)c1ccc(N2C(=O)CC(Sc3nnc(C)s3)C2=O)cc1 (stereo not given)
Marked response: 104

Exam item: Next compound: COc1cc(C)nc(Oc2ccc(OCCOc3ccc(C)cc3)nn2)n1
Marked response: 163

Exam item: Next compound: COc1ccc(C2C(C#N)=C(N)SC(N)=C2C#N)cc1OC
Marked response: 85.8

Exam item: Next compound: CCOC(=O)c1ccc(NC(=O)Cn2nnc3ccccc32)cc1
Marked response: 84.8

Exam item: Next compound: CN(C)CC(O)COc1cccc(OCC(O)CN(C)C)c1 (stereo not given)
Marked response: 155

Exam item: Next compound: CCOC(=O)C1=C(CSc2nc3c(cc2C#N)CCC3)OC(N)=C(C#N)C1c1ccccc1 (stereo not given)
Marked response: 118

Exam item: Next compound: Cc1nnc(C)n1/N=C/c1cc(Br)cc(Br)c1O
Marked response: 156

Exam item: Next compound: c1ccc(CSc2nnc(SCc3ccccn3)s2)nc1
Marked response: 173

Exam item: Next compound: CCCC(=O)N1c2ccccc2NC2=C(C(=O)CCC2)C1c1ccc(F)cc1 (stereo not given)
Marked response: 123

Exam item: Next compound: c1ccc(OCc2nn3c(-c4ccco4)nnc3s2)cc1
Marked response: 156

Exam item: Next compound: c1ccc(N2CCN(c3nc(NCc4ccco4)c4ccccc4n3)CC2)cc1
Marked response: 219

Exam item: Next compound: Cc1ccc(-n2ncc3c(N4CCN(c5ccccc5)CC4)ncnc32)c(C)c1
Marked response: 154

Exam item: Next compound: Cc1c(-c2cccs2)[n+](=O)c2c(n1[O-])CCCC2
Marked response: 164

Exam item: Next compound: N#CCCSCc1ccc(OCC(=O)O)cc1
Marked response: 138

Exam item: Next compound: CC(=O)NCCCCCCNC(C)=O
Marked response: 114

Exam item: Next compound: O=C(NC1CCS(=O)(=O)C1)N1CCCCC1 (stereo not given)
Marked response: 126

Exam item: Next compound: CCCCOc1ccc(C(=O)Nn2cnnc2)cc1
Marked response: 100

Exam item: Next compound: Cc1ccc(C#N)c(SCc2cc3c(cc2Cl)OCO3)n1
Marked response: 159

Exam item: Next compound: Cc1cc(C)nc(CC(N)=O)n1
Marked response: 142

Exam item: Next compound: COc1ccccc1-c1nn2c(-c3ccco3)nnc2s1
Marked response: 162

Exam item: Next compound: COC(=O)CC1=C(C(=O)OC)C(c2ccc3c(c2Cl)OCO3)C(C#N)=C(N)O1 (stereo not given)
Marked response: 146

Exam item: Next compound: CC(C)c1nc(NCC2CCCO2)c(C#N)c2c1COC(C)(C)C2 (stereo not given)
Marked response: 132

Exam item: Next compound: COc1ccc(/C=C/C2=NC(=C\N(C)C)/C(=O)O2)cc1
Marked response: 155

Exam item: Next compound: CCN(CC)C(=O)CSC1=C(C#N)C(c2ccco2)C(C(=O)OCCOC)=C(C)N1 (stereo not given)
Marked response: 152

Exam item: Next compound: CCOC(=O)N1CCN(/C=C(\C#N)c2nc3ccccc3s2)CC1
Marked response: 136

Exam item: Next compound: N#Cc1c(SCC(N)=O)nsc1SCc1ccc(Cl)cc1
Marked response: 148

Exam item: Next compound: CCOC(=O)C1/C(=N\O)CC(C)(O)C(C(=O)OCC)C1c1ccc(OC)c(OC)c1 (stereo not given)
Marked response: 149

Exam item: Next compound: CNCCCC1c2ccccc2C=Cc2ccccc21
Marked response: 120

Exam item: Next compound: Clc1ccccc1CSc1nnc(-c2ccco2)c(-c2ccco2)n1
Marked response: 157
